Assay: Human HepG2 cell viability assay in 384 well format
Type: toxicity, cell-based
Design: dose 125 nL, time 70.5 hour; concentration not given beside the values
Conditions: HepG2 cells, read-out: Inhibition
measure-name: cytotoxicity at 70.5 h (%)

>>> df
                                    compound            measure_name  obs_value
 0  Cc1cc(CN2C[C@H](OCC3CCOCC3)[C@H]3COC[C@H]32)oc1C  cytotoxicity at 70.5 h     -0.082
 1                   CC(C)c1cc(CN2CCNCC2)no1  cytotoxicity at 70.5 h       94.6
 2  CC(C)c1nccn1-c1cccc(C2CCCN(S(=O)(=O)N(C)C)C2)n1 (configuration not stated)  cytotoxicity at 70.5 h      -3.37
 3     O=C(c1ccc(-c2cccs2)cc1F)N1CCN(CCO)CC1  cytotoxicity at 70.5 h      -2.06
 4              CC(C)c1cc(N2CCSCC2)n2nccc2n1  cytotoxicity at 70.5 h       19.1
 5  Cc1n[nH]c(=O)c2c(NC(=O)CN3CCOCC3C)oc(C)c12 (configuration not stated)  cytotoxicity at 70.5 h       4.42
 6  Cc1ccc(NCc2cncc3c2CCN(C(=O)C2CC=CC2)C3)nn1  cytotoxicity at 70.5 h      -1.58
 7  Cc1cc(C(F)(F)F)nn1CC(C)C(=O)Nc1cccnc1 (configuration not stated)  cytotoxicity at 70.5 h      -3.81
 8  O=S(=O)(CCN1CCOC(Cn2cccn2)C1)C(F)(F)F (configuration not stated)  cytotoxicity at 70.5 h       11.7
 9  COCC(NC(=O)c1cnc(-c2ccncc2)nc1)c1ccnn1C (configuration not stated)  cytotoxicity at 70.5 h      -5.01
10  CC(C)NC(=O)N(C)C1CCN(c2ccccc2Cl)C1=O (configuration not stated)  cytotoxicity at 70.5 h      -21.1
11  COc1ccccc1N1CCN(C(=O)COc2c(C)occc2=O)CC1  cytotoxicity at 70.5 h       6.76

----------
Experiment: Human HepG2 cell viability assay in 384 well format
Format: toxicity, cell-based
Parameters: dose 125 nL, time 70.5 hour; concentration not given beside the values
Details: HepG2 cells, read-out: Inhibition
measure-name: cytotoxicity at 70.5 h (%)

>>> df
                                   compound            measure_name  unit  obs_value
0        O=C(NCCn1ccnc1)c1ccn(-c2ccccc2F)n1  cytotoxicity at 70.5 h     %       13.4
1  CCc1ocnc1C(=O)N1CCCC1c1noc(C)n1 (stereo unspecified)  cytotoxicity at 70.5 h     %      -5.19
2  Cc1cc(C(=O)N[C@@H]2CCC[C@@H](N3CCOCC3)[C@@H]2O)no1  cytotoxicity at 70.5 h     %      -6.42
3  Cc1cc(C(=O)NCC2(N(C)C)CCCC2)c(C)n1-c1cccnc1  cytotoxicity at 70.5 h     %     -0.689
4  FC1(F)CCNCC12CCN(c1cccnc1)C2 (stereo unspecified)  cytotoxicity at 70.5 h     %       13.7
5  CCc1ccc(CN2C[C@H](OC)[C@H]3COC[C@H]32)o1  cytotoxicity at 70.5 h     %     -0.659

// provenance: ChEMBL document CHEMBL3507680
